- System: PpEst (Ectopseudomonas oleovorans, UniProt W6R2Y2)
- Sequence (W6R2Y2 entry or part of it): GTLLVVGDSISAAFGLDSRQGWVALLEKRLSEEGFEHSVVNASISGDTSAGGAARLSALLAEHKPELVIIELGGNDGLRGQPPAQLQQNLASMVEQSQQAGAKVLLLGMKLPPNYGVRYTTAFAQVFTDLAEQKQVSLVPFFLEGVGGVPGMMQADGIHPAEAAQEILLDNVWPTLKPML
- Experimental Details: 4-NPB hydrolysis inhibition, […] nm
pKi: −log10 of the molar value.

{"Molecule": "O=C(O)c1ccc(C(=O)OCCCCO)cc1 [BuTA, 4-(4-hydroxybutoxycarbonyl)benzoic acid]", "pKi": 3.17}

Cited source for all entries: paper PMC5320007
